- Tested on: A/WSN/33 virus (with naturally occurring M2 N31)
- assay-info: microbe, parasite or virus in culture
- Format: cell-based
- test-parameters: read-out: EC50 ± SD; CPE inhibition assay, MDCK cells, amantadine-resistant A/WSN/33 (M2 N31)
property-label: pEC50
# pEC50 = -log10(concentration in molar units)

Q: Fill in: pEC50 of c1csc(-c2cc(CNC34CC5CC(CC(C5)C3)C4)on2)c1 is ___
Result: 6.82

---

- target-entity: full-length A/Udorn/72 M2 S31N (Influenza A virus, UniProt P0DOF5, S31N)
property-label: Kd (µM)
Report the value in µM with no unit label.

Q: Fill in: Kd of c1csc(-c2cc(CNC34CC5CC(CC(C5)C3)C4)on2)c1 is ___
Result: 7.5

Data origin, for the record: paper PMC8051587
